System: MDA-MB-435
Test: NCI tumour cell line growth inhibition, 48 h
Activity calls are given as the source filed them. Cut-off read from the data, not from the text of the source: active = GI50 up to about 1.1 µM and inactive = higher.
Classes used: active, inactive

MOLECULE: C=C1C(=O)OC2C(C)C3C=CC(=O)[C@@]3(C)C(OC(=O)/C(C)=C/C)C1[C@@H]2OC(C)=O (some centres undefined)
ANSWER LABEL: active
--
MOLECULE: CCCCCCCCCC[C@@H](O)[C@@H]1CC[C@@H]([C@@H]2CC[C@@H]([C@@H](O)CCCCCCCCCC[C@H](O)CC3=CC(C)OC3=O)O2)O1 (some centres undefined)
ANSWER LABEL: active
--
MOLECULE: COc1cc2c(cc1OC)C(=O)N(c1ccc(OCCN3CCCC3)cc1)C2=O
ANSWER LABEL: inactive
--
MOLECULE: COc1ccc2[nH]c(Cl)c(/C=C3/C(=O)N(c4ccccc4)c4ccccc43)c2c1
ANSWER LABEL: inactive

* * *

Tested on: HL-60
Experiment: NCI tumour cell line growth inhibition, 48 h
Activity calls are given as the source filed them. No stated cut-off is given here; in the data, active = GI50 up to about 1.1 µM and inactive = higher.
Attribute: GI50
ENDPOINT NAME: GI50

MOLECULE: CCOc1ccccc1Nc1nc(C)c(C(=O)CC(=O)C(=O)Nc2ccccc2)s1
REPORTED MEASUREMENT: 20.3 µM (inactive)
--
MOLECULE: CN(CCCCN1CCCC1)CCCCN(C)C(=O)Cc1ccc(Cl)c(Cl)c1
REPORTED MEASUREMENT: 17.5 µM (inactive)
--
MOLECULE: CCOC(=O)C(C)(C)Oc1ccc2c(-c3ccc(Cl)cc3)c(-c3ccc(Cl)cc3)c(=O)oc2c1
REPORTED MEASUREMENT: 68.7 µM (inactive)
--
MOLECULE: COC(=O)C1Cc2c([nH]c3ccccc23)[C@H](CC(C)C)N1 (stereo partly specified)
REPORTED MEASUREMENT: > 100 µM (inactive)
--
MOLECULE: O=[N+]([O-])c1ccc(-c2ccc(C3=Nn4c(CNc5ccccc5Cl)nnc4SC3)o2)cc1
REPORTED MEASUREMENT: > 100 µM (inactive)
--
MOLECULE: COc1ccc(NC(=O)CCc2cc(-c3ccc(O)c(OC)c3)nc(NC#N)n2)cc1
REPORTED MEASUREMENT: > 100 µM (inactive)

* * *

Attribute: GI50
Tested on: UACC-257
Experiment: NCI tumour cell line growth inhibition, 48 h
Active and inactive are the calls of the source. No stated cut-off is given here; in the data, active = GI50 up to about 1.1 µM and inactive = higher.

COMPOUND: O=C(NC(Nc1ccc(F)c(Cl)c1)(C(F)(F)F)C(F)(F)F)C(C(F)(F)F)C(F)(F)F
GI50: 32.7 µM (inactive)
//
COMPOUND: S=C(S)NCNC(=S)S
GI50: > 100 µM (inactive)
//
COMPOUND: Nc1c(C(=O)O)nnc2cc(Cl)ccc12
GI50: > 100 µM (inactive)
//
COMPOUND: CCCCc1c2c(nc3c1CCC/C3=C\c1ccccc1)C(=O)CCC2
GI50: 17 µM (inactive)
//
COMPOUND: CO[C@@H]1C[C@H]2N3CC[C@@]2(c2cc4c(cc2C3)OCO4)[C@H]2O[C@@H]12
GI50: > 100 µM (inactive)
//
COMPOUND: Cn1cnc([N+](=O)[O-])c1Sc1nnnn1-c1ccccc1
GI50: 13.7 µM (inactive)
//
COMPOUND: Oc1cccc2c1NC1=C(CCC/C1=C\c1ccccc1)C2
GI50: 57.9 µM (inactive)
//
COMPOUND: CCn1c2ccccc2c2cc(Nc3cc(C)[nH]c(=O)n3)ccc21
GI50: > 100 µM (inactive)
//
COMPOUND: CC(C)(C)c1cc2c(c(C(C)(C)C)c1O)CC(=O)O2
GI50: 24.6 µM (inactive)
//
COMPOUND: COC(=O)/C=C(/C)n1nc2ccccc2n1
GI50: > 100 µM (inactive)
//
COMPOUND: CC1=CC2=C(C#N)C(=O)OC2(C)C(c2ccccc2)C1 (stereo unspecified)
GI50: > 100 µM (inactive)
